Numbers sourced from PubChem BioAssay (NCI).

# Tested on: SN12C renal
# assay: NCI-60 one-dose screen, 48 h (100 = growth as untreated, 0 = no growth, -100 = all killed)
# conditionDetails: 10 µM unless noted
The panel holds about 83,000 compounds, 20% with a hit somewhere; the sample as a whole holds those more often.
measuredParameter: growth (%)
Output spec: scalar in %, unitless text.

>>> assayresult("c1cnc2[nH]cc(-c3csc(-c4cn(CCCN5CCOCC5)c5ccccc45)n3)c2c1")
64.5
>>> assayresult("N#Cc1c(-c2ccc(Cl)cc2)nc(SCC(=O)NC2=NN=C(c3ccccc3)CS2)[nH]c1=O")
97.4
>>> assayresult("CC[C@@H](C(=O)[C@@H](C)[C@@H](O)[C@H](C)[C@@H]1O[C@@H]([C@@H](CC)C(=O)NCCc2ccc(F)cc2)CC[C@@H]1C)C1O[C@]2(C=CC(=O)[C@]3(CC[C@@](C)([C@H]4CC[C@](O)(CC)[C@H](C)O4)O3)O2)[C@H](C)C[C@@H]1C (stereo not given in full)")
37.7
>>> assayresult("O=C(O)c1ccc(-n2cc(/C=N/Nc3ccc(F)cc3)c(-c3cc4ccccc4oc3=O)n2)cc1")
101

Data request: Name the recorded growth for CCCCCC(=O)OCC(=O)O[C@@H]1C[C@]2(C(C)C)O[C@@]1(C)[C@@H]1CC[C@@H](C)[C@H]1[C@@H]2OC(=O)/C=C/c1ccccc1 .
Data returned: 19.7

Data request: Now the compound C=CCn1c(SCC(=O)Nc2ccc(C(=O)/C=C/c3cc4cc(OC)ccc4nc3Cl)cc2)nnc1-c1ccc(Br)cc1
Data returned: 81.5

Data request: Now the compound O=S(=O)(NCCNc1cc(-c2c(-c3cccc(O)c3)nc3sccn23)ccn1)c1ccc(C(F)(F)F)cc1
Data returned: 35.6

Data request: Now the compound Cc1ccc(-c2nc(/C=C3/C(=O)Nc4ccccc43)c3ccccn23)cc1
Data returned: 82.6

Data request: Now the compound CC(C)N1CCN(Cc2ccc3c(NNC(=O)c4ccccc4)nc4cc(F)ccc4n23)CC1
Data returned: 17.3

Data request: Now the compound O=C(/C=C(/C=C/c1cccc2[nH]ccc12)OB(F)F)/C=C/c1cccc2[nH]ccc12
Data returned: -1.2

Data request: Now the compound CCOC(=O)c1c(NC(=O)c2ccc(C(C)C)cc2)sc2c(CN(C)C)c(O)ccc12
Data returned: 82

Data request: Now the compound CN(C)CCNc1nc2c3cc(Cl)ccc3nn2c2ccccc12
Data returned: 40.9

Data request: Now the compound N#CC1=C(N)Oc2c(sc3c(Br)cccc23)C1c1ccc(F)cc1 (stereo not given)
Data returned: 27.4

Data request: Now the compound COC1C[C@H](O[C@@H]2C[C@H](O[C@@H]3C[C@H](O[C@@H]4C(=O)c5c(cc6cc(O[C@H]7C[C@@H](O[C@H]8C[C@@H](O)[C@H](O)C(C)O8)[C@H](O)C(C)O7)c(C)c(O)c6c5O)C[C@H]4C(OC)C(=O)[C@@H](O)[C@@H](C)O)OC(C)[C@H]3O)OC(C)[C@@H]2O)OC(C)[C@@H]1O (stereo not given in full)
Data returned: 2.57

Data request: Now the compound O=C(Nc1ccc(-c2nc(N3CCOCC3)c3cccn3n2)cc1)Nc1cccnc1
Data returned: 6.41

====

# System: MOLT-4 leukemia
# assay: NCI-60 one-dose screen, 48 h (100 = growth as untreated, 0 = no growth, -100 = all killed)
# conditionDetails: 10 µM unless noted
Compounds without any hit were thinned out: in the full panel of roughly 83,000, 20% have a hit.
measuredParameter: growth (%)
Output spec: scalar in %, unitless text.

>>> assayresult("CCOC(=O)C(=Cc1cccc(Cl)c1)C(=O)OCC")
13.4
>>> assayresult("CCCCNC(=O)Oc1ccc(/C(=C(/CC)Cc2ccccc2)c2ccc(OCCN3CCCCCC3)cc2)cc1")
2.34
>>> assayresult("Cc1noc(C)c1C(=O)OCc1coc2ccccc2c1=O")
62.8
>>> assayresult("CNC(=O)c1cc(Oc2ccc3c(c2)sc2nc(-c4cc(OC)c(OC)c(OC)c4)cn23)ccn1")
18.3

Next up:
Data request: Name the recorded growth for O=C1Nc2ccccc2/C1=C\c1nc(-c2ccccc2)n2ccccc12 .
Data returned: 88.1

====

# Test system: M14 melanoma
# assay: NCI-60 one-dose screen, 48 h (100 = growth as untreated, 0 = no growth, -100 = all killed)
# conditionDetails: 10 µM unless noted
This is part of a sample that, as a whole, favours compounds with a hit. Of some 83,000 tested, about 20% had one in any assay.
# label = Fulfilled if growth < 20% else Not fulfilled

Reference set (4 entries):
>>> labelvalue("CCOC(=O)C(=Cc1cccc(Br)c1)C(=O)OCC")
"Not fulfilled"
>>> labelvalue("O=C1c2cccnc2C(=O)c2c1c(C(=O)NCCn1ccnc1)c1ccccn21")
"Fulfilled"
>>> labelvalue("O=C1CC(N2C(=O)/C(=C/C(Cl)=C\\c3ccc([N+](=O)[O-])cc3)SC2=S)C(=O)N1c1ccc(Cl)cc1 (stereo not given)")
"Not fulfilled"
>>> labelvalue("CC(=O)N1N=C(c2ccc(Nc3nc(Nc4ccc(Cl)cc4)nc(Nc4ccc(Cl)cc4)n3)cc2)CC1c1ccco1 (stereo not given)")
"Not fulfilled"

Here is the next item to consider.
Data request: Determine whether this molecule shows growth lower than 20% (ties excluded): COc1ccc(C(=S)N2CCN(c3ccccc3Cl)CC2)cc1OC
Data returned: Not fulfilled

====

# Tested on: SF-295 CNS
# assay: NCI-60 one-dose screen, 48 h (100 = growth as untreated, 0 = no growth, -100 = all killed)
# conditionDetails: 10 µM unless noted
Compounds without any hit were thinned out: in the full panel of roughly 83,000, 20% have a hit.
Measured growth of individual entries
Output spec: scalar in %, unitless text.

Example results:
>>> assayresult("CC12CCC3c4ccccc4CCC3(CO1)C2 (stereo not given)")
77.2
>>> assayresult("COc1ccc2[nH]cc(-c3nc(-c4cn(C)c5c(Cl)nccc45)cs3)c2c1")
37.9
>>> assayresult("O=C(NCc1ccccc1)Nc1ccccc1CNc1nc(Nc2ccc(OCCN3CCCC3)cc2)ncc1Cl")
95.5

Data request: Name the recorded growth for COc1ccc(C/C(C)=C(/c2ccc(OCCN3CCCCC3)cc2)c2ccc(OC(=O)NCc3ccccc3)cc2)cc1 .
Data returned: -94.8

Data request: Now the compound O=S(=O)(Nc1ccccc1)c1ccc(C2CC3(Cl)C(Cl)=C(Cl)C2(Cl)C3(Cl)Cl)cc1 (stereo not given)
Data returned: 8.38

====

# Tested on: HOP-92 NSCLC
# assay: NCI-60 one-dose screen, 48 h
# conditionDetails: 10 µM unless noted
About 83,000 compounds went through this panel and 20% of them were active in at least one assay; those are over-represented in the sample as a whole. Calls of active or inactive are those of the source. Rule for the calls: active = growth percent below 10; inactive = the rest.
Assign a class; possible classes are true = active, false = inactive

Reference set (2 entries):
>>> labelvalue("O=C1C(Cl)=C(Oc2ccccc2)C(=O)c2ccccc21")
"false"
>>> labelvalue("Cc1cccc2c1NC(=O)C2(c1ccc(O)cc1)c1ccc(O)cc1")
"false"

Data request: What outcome does the record of this test show for CCn1c(SCC(=O)c2ccc(Br)cc2)nnc1-c1ccncc1 ?
Data returned: false

Data request: Now the compound C=C(C)[C@@H]1CC[C@]2(C)[C@H](CC=C3[C@@H]4[C@H](C)[C@@H](C)CC[C@]4(CO)CC[C@]32C)[C@@]1(C)CCCN
Data returned: true

Data request: Now the compound CC(O)c1cnc(/C=C2\SC(=S)N(Cc3ccccc3)C2=O)s1 (stereo not given)
Data returned: false

====

# System: SW-620 colon
# assay: NCI-60 one-dose screen, 48 h
# conditionDetails: 10 µM unless noted
This is part of a sample that, as a whole, favours compounds with a hit. Of some 83,000 tested, about 20% had one in any assay. Active and inactive are the calls of the source. The calls were made as follows: active = growth percent below 10; inactive = the rest.
Assign a class; possible classes are T (active), F (inactive)

>>> labelvalue("COc1ccc(/C=C2\\C(=O)N=C3N2NC(c2cc(Br)ccc2O)C=C(C)N3c2ccccc2)cc1 (configuration not stated)")
"F"
>>> labelvalue("COc1cc(CNC(=O)/C=C/C=C/c2ccc3c(c2)OCO3)ccc1OCc1cn(-c2ccc(C)c(C)c2)nn1")
"F"
>>> labelvalue("N#Cc1cccc(-c2c(-c3ccc4ccccc4c3)oc3ccccc3c2=O)c1")
"F"
>>> labelvalue("O=[N+]([O-])c1ccc(S(=O)(=O)N2CCN(C3=NS(=O)(=O)c4ccccc4N3c3ccccc3)CC2)cc1")
"F"
>>> labelvalue("CC(O)c1cnc(/C=C2\\SC(=S)N(Cc3ccccc3)C2=O)s1 (configuration not stated)")
"F"
>>> labelvalue("CC1(C)c2[nH]c3ccccc3c2C[C@]2(C)[C@H]3CC=C4[C@@H]5C[C@@](C)(C(N)=O)CC[C@]5(C)CC[C@@]4(C)[C@]3(C)CC[C@@H]12")
"F"
>>> labelvalue("C#Cc1cccc(Nc2ncnc3ccc(-c4cnc(N)nc4)cc23)c1")
"F"
>>> labelvalue("CCOC(=O)CSc1ncnc2c1c(-c1ccccc1)c(-c1ccccc1)n2-c1ccc(C)cc1")
"F"
>>> labelvalue("CN(C)CC(=O)Nc1ccc2ncnc(Nc3ccc(Oc4cccc(C(F)(F)F)c4)c(Cl)c3)c2c1")
"F"
>>> labelvalue("N#Cc1c(NC(=O)c2ccccc2)sc2c1CCC(=O)C2")
"F"

Data request: What outcome does the record of this test show for COc1cc(OC)cc(C2=C3CC[C@@H]4[C@H](CC[C@]5(C)C(=O)CC[C@@H]45)C3=CC3C(O)c4cccnc4N4C(=O)COC234)c1 (some centres not stated) ?
Data returned: F

Data request: Now the molecule CC1(C)CCC(S(=O)(=O)c2ccc3c(c2)/C(=N\O)c2cc(S(=O)(=O)N4CCC(O)(c5cccc(C(F)(F)F)c5)CC4)ccc2-3)CC1
Data returned: T

Data request: Now the molecule CN1CCN(c2ccc(C(=O)Nc3cccc(C#Cc4cccc5[nH]nc(N)c45)c3)cc2C(F)(F)F)CC1
Data returned: T

Data request: Now the molecule COc1cc(-n2cc(-c3cc(O)c(C/C=C(\C)CCC=C(C)C)c(O)c3)nn2)cc2c1O[C@]1(C)CC[C@@H](O)C(C)(C)[C@H]1C2
Data returned: F

Data request: Now the molecule O=C1c2cccc3cccc(c23)C(=O)N1N1C(=O)c2cccc3c(N4CCOCC4)ccc(c23)C1=O
Data returned: F

Data request: Now the molecule O=C(c1ccc(Cl)cc1)N1CCN(c2ccnc3cc(Cl)ccc23)CC1
Data returned: F

Data request: Now the molecule Cc1cc(N)c2cc(NC(=O)/C=C\c3ccccc3Cl)ccc2n1
Data returned: T
